# Test system: NCI-H23
# protocol text: NCI tumour cell line growth inhibition, 48 h
Activity calls are given as the source filed them. No stated cut-off is given here; in the data, active = GI50 up to about 1.1 µM and inactive = higher.
Reported GI50 by item:

compound	GI50
CCCCOC(=O)NC(=O)c1cn(CCSCCOC(=O)NCCCCCCNC(=O)OCCSCCn2cc(C(=O)NC(=O)OCCCC)c(=O)[nH]c2=O)c(=O)[nH]c1=O	27.4 µM (inactive)
O=c1c2c3c(sc2nc2n1N=CN(c1ccccc1)C2)CCCC3	> 100 µM (inactive)
Cc1ccc(NC(=O)CC(=O)n2nc(C)c(/N=N/c3ccccc3C(=O)O)c2C)cc1	> 100 µM (inactive)
Nc1ccc(Oc2ccc(C34CC5CC(C3)CC(c3ccc(Oc6ccc(N)cc6C(F)(F)F)cc3)(C5)C4)cc2)c(C(F)(F)F)c1	17.7 µM (inactive)
C/C(=N\NS(=O)(=O)c1ccc(C)cc1)c1ccccn1	54.1 µM (inactive)
COc1cc2c(cc1OC)[C@@](C)(C(O)C(O)C(C)(C)O)NCC2 (some centres undefined)	> 100 µM (inactive)
CC1(C)C2CC(O)C1(C)CC2=O (centres undefined)	> 100 µM (inactive)
Cn1c(-c2ccccc2)cc(-c2cccs2)c1-c1cccs1	49.3 µM (inactive)
CC(C)c1cc(C(C)C)c(S(=O)(=O)N/N=C2\CC3CCC2(C)C3(C)C)c(C(C)C)c1 (centres undefined)	17.4 µM (inactive)

---

# Test system: RPMI-8226
# protocol text: NCI tumour cell line growth inhibition, 48 h
Activity calls are given as the source filed them. No stated cut-off is given here; in the data, active = GI50 up to about 1.1 µM and inactive = higher. Where a SMILES comes first, the peptide text is derived from it. [ ]: non-standard residue; d: D form. Phe(4-NO2) = N[CH](Cc1ccc([N+](=O)[O-])cc1)C(=O)O
Classes used: Y (active), N (inactive)

compound	cat
S=C1NC(c2ccccc2)NC(c2ccccc2)S1 (stereo not drawn)	N
Nc1cc([N+](=O)[O-])ccc1C(=O)N1CCC[C@H]1CO	N
O=C(O)CN(c1ccccc1)S(=O)(=O)c1ccc(Cl)cc1	N
CCCCCCCCCN1CCC(=O)C(C(=O)OC)C1 (stereo not drawn)	N
Nc1nc(Cl)c2ncn(Cc3cccc(CCl)c3)c2n1	N
OCC(O)C(O)C(O)C1SC(c2ccccc2)=NN1c1ccccc1 (stereo not drawn)	N
COC(=O)C(Cc1ccccc1)NS(=O)(=O)c1ccc(-c2c3nc(c(-c4ccc(S(=O)(=O)NC(Cc5ccccc5)C(=O)OC)cc4)c4ccc([nH]4)c(-c4ccc(S(=O)(=O)NC(Cc5ccccc5)C(=O)OC)cc4)c4nc(c(-c5ccc(S(=O)(=O)NC(Cc6ccccc6)C(=O)OC)cc5)c5ccc2[nH]5)C=C4)C=C3)cc1 (stereo not drawn)	N
CCOC(=O)NC(=O)c1cn(CCN2CCN(C(=O)NCCCCCCNC(=O)N3CCN(CCn4cc(C(=O)NC(=O)OCC)c(=O)n(CCN(CC)CC)c4=O)CC3)CC2)c(=O)n(CCC(CC)CC)c1=O	N
CCN(C1=CC(=O)NC2CCCCN12)c1ccccc1 (stereo not drawn)	N
COc1cc(C)c(C2NC(=O)c3ccccc3N2)cc1C (stereo not drawn)	Y
Cc1c(CN)c(C)c(CN)c(C)c1CN	N
Cc1cc(C)nc(NS(=O)(=O)c2ccc(Nc3c4ccccc4nc4ccc(C(=O)Nc5ccc(S(=O)(=O)N=C(N)N)cc5)cc34)cc2)n1	N
ClC(Cl)[Si]12OCCN(CCO1)CCO2	N
CC1=C(C(=O)Nc2c(C)cccc2C)C(c2ccccc2Cl)C(C(=O)Nc2c(C)cccc2C)=C(C)N1	N
CC1=C(C#N)C23C(=O)c4ccccc4C(=O)C2=C(O)C=CC3(O)N1 (stereo not drawn)	Y
O=[N+]([O-])c1cccc(C2=NN(c3ccccc3)C3c4cc(Br)ccc4OCC23)c1 (stereo not drawn)	N
COC(=O)C(C(=O)C(=O)Nc1nc2ccc(OC)cc2s1)c1cnc2ccccc2n1 (stereo not drawn)	N
N#Cc1ccc2[nH]c3c(c2c1)CC(=O)Nc1ccccc1-3	N
Cc1cccc2c1C(=O)/C(=C/c1ccccc1C(=O)O)C2	N
COC(=O)[C@@H]1C2OC(C)(C)OC2CN1C(=O)OCc1ccccc1 (stereo partly drawn)	N
CCN(CC)c1ccc2cc(C(=O)Nc3ccccn3)c(=N)oc2c1	N
N#CC(C#N)/N=N/c1ccc(-c2nc3ccccc3s2)cc1	N
CC(NC(=O)C(Cc1ccc([N+](=O)[O-])cc1)NC(=O)C(N)CCCCN)C(=O)NC(Cc1ccc([N+](=O)[O-])cc1)C(N)=O (stereo not drawn) (H-K[Phe(4-NO2)]A[Phe(4-NO2)]-NH2; configuration not given here)	N
Oc1cc(-c2ccccc2)nc2ncccc12	Y
NCCSC(c1ccccc1)c1ccccc1	N
COC(=O)n1c(=O)nc2c3c(ncn21)Oc1c(c(-c2ccccc2)nn1-c1ccccc1)C3c1ccc(Cl)cc1 (stereo not drawn)	N
CC(C)(C)OC(=O)c1ccc(NCC2=C(Br)C(=O)C=CC2=O)cc1	N
COc1cc2c(cc1OC)[C@@](C)(C(O)C(O)C(C)(C)O)NCC2 (stereo partly drawn)	N
CC1NC(=O)c2c(-c3ccccc3)nn(-c3ccccc3)c2NC1=O (stereo not drawn)	N
CCN1CC2(CO)CCC(OC)C34C5CC6C(OC)CC(O)(C5C6OC)C(O)(C(OC)C23)C14 (stereo not drawn)	N
CCOc1ccc(NC2=NC(=O)C(CC(=O)Nc3ccc(Cl)cc3Cl)S2)cc1 (stereo not drawn)	N
N=CCCN(CCC=N)c1ccc(/C=C2\CN(NC(=O)c3ccc(Cl)cc3)C(c3ccccc3)=N2)cc1	N
Cc1cc(S(=O)(=O)Nc2nnc3cnc4ccccc4n23)c(S)cc1Cl	N
Cc1ccc(-c2cc(-c3ccccc3)nc(N)n2)c(O)c1	N
c1ccc(Sc2nc(Sc3ccccc3)nc(Sc3ccccc3)n2)cc1	N
COc1cc2c(cc1C)NC(=O)/C2=C\c1cccnc1	N
CC1=NN(c2cccc(S(=O)(=O)O)c2)C2(C1)SCC(=O)N2c1nc2ccccc2s1 (stereo not drawn)	N
C[C@@H]1O[C@@H](O[C@H]2[C@H](Oc3cc(O)c4c(=O)cc(-c5ccc(O)cc5)oc4c3)O[C@H](CO)[C@@H](O)[C@@H]2O)[C@H](O)[C@H](O)[C@H]1O	N

src = ChEMBL document CHEMBL1201862
